# Test system: CCRIS mutagenicity, Ames/micronucleus/aberration tests
# experiment summary: CCRIS mutagenicity studies
# condition description: Test System: AMES SALMONELLA TYPHIMURIUM; Strain/Indicator: TA100; Metabolic Activation: RAT, LIVER, S-9, AROCLOR 1254 (10%); Method: PREINCUBATION
The source made the active and inactive calls. The rule behind the calls is not given here.
Hello, when you answer, please use one of the following outcomes: Yes = active, No = inactive

Below are worked cases with known answers.
C=CC(=O)OCC(Br)CBr (stereo unspecified) | Yes
C1=CC2C3C=CC(C3)C2C1 (stereo unspecified) | No
CC(O)CN(CC(C)O)CC(C)O (stereo unspecified) | No

Q: Please let me know the test result on file for `NCCNCCO` .
Ans: No

Q: // return assay outcome for CC(O)CNCC(C)O (stereo unspecified)
Ans: No
